Could you please report measured inhibition of the 5α-reductase activity for the items listed next?
tested on: 5α-reductase; assay: Fatty acid esters on 5α-reductase activity, conversion of testosterone to 5α-dihydrotestosterone in normal human dermal fibroblast cultures (Example 4); assay type: cell-based; conditions: 10 μg/ml, Example 4, p<0.05
Give bare numbers, in %.

// batch mode: one inhibition of the 5α-reductase activity value per listed entry
1. CCCCCCCC/C=C\CCCCCCCC(=O)OCCCC [Butyl oleate, butyl oleate]
2. CCCCC/C=C\C/C=C\CCCCCCCC(=O)OC [Methyl linoleate, methyl linoleate]
3. CCCCCCCC/C=C\CCCCCCCC(=O)OC [Methyl oleate, methyl oleate]

Solution:
[45, 40, 42]

----------
Exercise: state measured inhibition of the 5α-reductase activity for each of the molecules provided.
system: 5α-reductase; assay: Fatty acid esters on 5α-reductase activity, conversion of testosterone to 5α-dihydrotestosterone in normal human dermal fibroblast cultures (Example 4); format: cell-based; settings: 10 μg/ml, Example 4, p<0.05
Numbers only, in %.

Worked cases, inhibition of the 5α-reductase activity given:
Problem: Using the record for CCCCCC[C@@H](O)C/C=C\CCCCCCCC(=O)OC [Methyl ricinoleate, methyl ricinoleate] , report its inhibition of the 5α-reductase activity.
Solution: 38

Problem: Entry CCCCCCCC/C=C\CCCCCCCCOC(=O)CCCCCCC/C=C\CCCCCCCC [Oleyl oleate, oleyl oleate] : reported inhibition of the 5α-reductase activity = ?
Solution: 45

Problem: What value of measured inhibition of the 5α-reductase activity is listed for CCCCCCCCCCCCCCCCCC(=O)OC [Methyl stearate, methyl stearate] ?
Solution: 35

We next turn to a different molecule, shown below.
Problem: // lookup inhibition of the 5α-reductase activity for C=CCCCCCCCCC(=O)OC [Methyl undecylenate, methyl undecylenate]
Solution: 32

----------
test system: 5α-reductase; assay: Fatty acid esters on 5α-reductase activity, conversion of testosterone to 5α-dihydrotestosterone in normal human dermal fibroblast cultures (Example 4); type: cell-based; settings: 10 μg/ml, after 24 of incubation, DMSO 0.1% (v/v), mean
Marks after values point to notes of the source that are not given here.
property: 5α-DHT formed per culture well, mean

Problem: What 5α-DHT formed per culture well, mean value was documented for this compound, CCCCCCCCCCCC(=O)OC [Methyl laurate, methyl laurate] ?
Solution: 8.75 pmol of 5α-DHT formed/culture well

----------
system: 5α-reductase; test: Fatty acid esters on 5α-reductase activity, conversion of testosterone to 5α-dihydrotestosterone in normal human dermal fibroblast cultures (Example 4); type: cell-based; set-up: key: group A with the highest inhibitory activity; group B with an intermediate inhibitory activity; conditions: tested at 1, 10 and 100 μg/ml
property: group by 5α-reductase inhibitory activity

Past entries and their recorded results:
Problem: For CCCCCCCCCCCCCCCCCC(=O)OC [Methyl stearate, methyl stearate] , what is its reported group by 5α-reductase inhibitory activity?
Solution: B

Problem: Give its group by 5α-reductase inhibitory activity value. Item: CCCCCCCC/C=C\CCCCCCCC(=O)OC [Methyl oleate, methyl oleate]
Solution: A

Problem: Which group by 5α-reductase inhibitory activity is reported for this compound? CCCCCC[C@@H](O)C/C=C\CCCCCCCC(=O)OC [Methyl ricinoleate, methyl ricinoleate]
Solution: A

Problem: Any idea what its group by 5α-reductase inhibitory activity is? The compound is CCCCC/C=C\C/C=C\CCCCCCCC(=O)OC [Methyl linoleate, methyl linoleate]
Solution: B

Problem: Fill blank: measured group by 5α-reductase inhibitory activity of the compound CCCCCCCC/C=C\CCCCCCCC(=O)OCCCC [Butyl oleate, butyl oleate] is ____.
Solution: A

Problem: Sample C=CCCCCCCCCC(=O)OC [Methyl undecylenate, methyl undecylenate] — what was its group by 5α-reductase inhibitory activity?
Solution: B

Problem: Please report the recorded group by 5α-reductase inhibitory activity for CCCCCCCC/C=C\CCCCCCCCOC(=O)CCCCCCC/C=C\CCCCCCCC [Oleyl oleate, oleyl oleate] .
Solution: A

Consider the record given below.
Problem: Recorded group by 5α-reductase inhibitory activity for CCCCCCCCCCCC(=O)OC [Methyl laurate, methyl laurate] , please?
Solution: B
